Target Of Assay: T1, protein A56 of the oncolytic virus OTS-412 (vaccinia virus (OTS-412), UniProt P08714 17-315)
T1 construct: also called OTS-412-A56; protein A56 variant
T1 chain: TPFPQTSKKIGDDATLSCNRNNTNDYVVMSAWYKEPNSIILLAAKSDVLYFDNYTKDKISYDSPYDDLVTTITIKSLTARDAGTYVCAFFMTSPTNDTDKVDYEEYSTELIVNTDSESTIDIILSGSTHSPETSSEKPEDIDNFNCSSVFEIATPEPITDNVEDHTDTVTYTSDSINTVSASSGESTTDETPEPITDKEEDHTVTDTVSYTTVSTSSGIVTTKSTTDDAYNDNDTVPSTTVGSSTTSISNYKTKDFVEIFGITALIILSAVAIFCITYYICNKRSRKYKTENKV
Run Description: flow cytometry, PC3 cells treated with OTS-412 (overlay, FIG. 74)
Below, each entry is listed with its recorded binding signal (flow cytometry, %).
Attribute Measured: binding signal (flow cytometry, %)

INSERT INTO results (binder, measured_value) VALUES
  ('A56-02C06 (Ab18) (antibody, V domains shown) VH: QVQLVESGGGLVQPGKSLRLSCAASGFTFSTYGMTWVRQAPGKGLEWVSGISGGGSSTNYADSVKGRFIISRDNSNNTLYLQMNSLRAEDTAVYYCARWGVMLSFDYWGQGTPVTVSS VL: DIQMTQSPSTLPASVGDRVTITCRASYSVSPWLAWYQQKPGKAPKLLIYKASTLESGVPSRFSGSGSGTEFTLTISSLQPDDFATYYCQQFNSYMMYTFGQGTKLEIK', '≥ 60%'),
  ('A56-35G07 (Ab51) (antibody, V domains shown) VH: QMQLVQSGAEVRKPGSSVKVSCKASGDTFSSYAVSWVRQAPGLGLEWMGRTIPRLGATSYAQNFQGRVSITADKSTNTVYMELSGLRSEDTAVYYCARYIPLVRGVRQPRDDFEIWGPGTMITVSS VL: DIQMTQSPGTLSLSPGERATLSCRASQSVSSSYLAWYQQKPGQAPRLLIYGASSRATGIPDRFSGSGSGTDFTLTISSLEPEDFAVYYCQHRKSWPPGATFGQGTRLEIK', '≥ 60%');

Each recorded value in this set is attributed to patent US20220389085A1.
